System: Fibroblast
Experiment: Multiplex assay against human fibroblast
Type: toxicity, cell-based
Details: 48 h, 10 µM, compound concentration 10 uM, replicate 2
measure: Population Apoptotic (%)
State just the number; it will be interpreted in %.

Consider the following illustrative entries.
- compound: "CCOc1c2c(c(OCC)c3ncccc13)CN(c1ccc(CS(=O)(=O)NC(=O)Cc3ccccc3OC)cc1C)C2=O"
  Population Apoptotic (%): 29
- compound: "Cc1ccc(/C(=C\\CN2CCCC2)c2ccccn2)cc1"
  Population Apoptotic (%): 42
- compound: "Cc1ccc(F)cc1C(=O)Nc1ccc(C(=O)N2Cc3cccn3Cc3ccccc32)c(Cl)c1"
  Population Apoptotic (%): 73
- compound: "O=C(O)c1cc2ccccc2c(Cc2c(O)c(C(=O)O)cc3ccccc23)c1O"
  Population Apoptotic (%): 60
- compound: "c1cc(OCCCN2CCCCC2)ccc1CN1CCCCC1"
  Population Apoptotic (%): 30

Now take the following compound into account.
Measured Population Apoptotic (%) (Fibroblast), entry CCCN1CCC[C@@H]2Cc3n[nH]cc3C[C@H]21.Cl [QUINPIROLE HYDROCHLORIDE] : 46
